- Measurement Protocol: Plasma pharmacokinetics of telatinib and metabolite BAY 60-8246 (LC-MS-MS, non-compartmental)
- Assay type: in vivo, human
- Condition Details: human; telatinib in plasma, day 14 cycle 1, 75 mg BID oral, 25 mg mesylate tablet, n=4, geometric mean (%CV); read-out: AUC0–tn
Measured Attribute: AUC (ng·h/mL)
Your answer is read as ng·h/mL, so omit the unit and give the number.

Write down AUC measured for item CNC(=O)c1cc(COc2nnc(Nc3ccc(Cl)cc3)c3ccoc23)ccn1
1380

* * *

- Measurement Protocol: Plasma pharmacokinetics of telatinib and metabolite BAY 60-8246 (LC-MS-MS, non-compartmental)
- Format: in vivo, human
- Condition Details: human, plasma, oral; telatinib, across dose levels, discussion statement; read-out: half-life
Measured Attribute: half-life

Write down half-life measured for item CNC(=O)c1cc(COc2nnc(Nc3ccc(Cl)cc3)c3ccoc23)ccn1
6.6 to 10.9 h

* * *

- Measurement Protocol: Plasma pharmacokinetics of telatinib and metabolite BAY 60-8246 (LC-MS-MS, non-compartmental)
- Type: in vivo, human
- Condition Details: human; telatinib in plasma, day 14 cycle 1, 75 mg BID oral, 25 mg mesylate tablet, n=4, geometric mean (%CV); read-out: AUC0–12
Measured Attribute: AUC(0-t) (ng·h/mL)
Your answer is read as ng·h/mL, so omit the unit and give the number.

Write down AUC(0-t) measured for item CNC(=O)c1cc(COc2nnc(Nc3ccc(Cl)cc3)c3ccoc23)ccn1
1390

* * *

- Measurement Protocol: Plasma pharmacokinetics of telatinib and metabolite BAY 60-8246 (LC-MS-MS, non-compartmental)
- Type: in vivo, human
- Condition Details: human; telatinib in plasma, day 14 cycle 1, 75 mg BID oral, 25 mg mesylate tablet, n=4, geometric mean (%CV); read-out: t1/2 (converted)
Measured Attribute: half-life (h)
Your answer is read as h, so omit the unit and give the number.

Write down half-life measured for item CNC(=O)c1cc(COc2nnc(Nc3ccc(Cl)cc3)c3ccoc23)ccn1
7.4

* * *

- Measurement Protocol: Plasma pharmacokinetics of telatinib and metabolite BAY 60-8246 (LC-MS-MS, non-compartmental)
- Assay type: in vivo, human
- Condition Details: human; telatinib in plasma, day 14 cycle 1, 900 mg BID oral, 150 mg mesylate tablet, n=12, geometric mean (%CV); read-out: AUC0–12
Measured Attribute: AUC(0-t) (ng·h/mL)
Your answer is read as ng·h/mL, so omit the unit and give the number.

Write down AUC(0-t) measured for item CNC(=O)c1cc(COc2nnc(Nc3ccc(Cl)cc3)c3ccoc23)ccn1 [telatinib]
7300

* * *

- Measurement Protocol: Plasma pharmacokinetics of telatinib and metabolite BAY 60-8246 (LC-MS-MS, non-compartmental)
- Type: in vivo, human
- Condition Details: human; telatinib in plasma, day 14 cycle 1, 600 mg BID oral, 150 mg mesylate tablet, n=11, median (range); read-out: tmax
Measured Attribute: Tmax (h)
Your answer is read as h, so omit the unit and give the number.

Write down Tmax measured for item CNC(=O)c1cc(COc2nnc(Nc3ccc(Cl)cc3)c3ccoc23)ccn1
2.1

* * *

- Measurement Protocol: Plasma pharmacokinetics of telatinib and metabolite BAY 60-8246 (LC-MS-MS, non-compartmental)
- Assay type: in vivo, human
- Condition Details: human; telatinib in plasma, day 14 cycle 1, 1500 mg BID oral, 150 mg mesylate tablet, n=12, geometric mean (%CV); read-out: t1/2 (converted)
- Method: Patients with at least one valid pharmacokinetic profile were valid for the pharmacokinetic analysis. Plasma samples were collected at predose and 0.5, 1, 2, 3, 4, 6, 8, and 12 h postdose on day 1 and day 14 of cycle 1 and were analysed for BAY 57-9352 and its demethylated metabolite M-2, BAY 60-8246, using a validated LC-MS-MS analytical method. […]
Measured Attribute: half-life (h)
Your answer is read as h, so omit the unit and give the number.

Write down half-life measured for item CNC(=O)c1cc(COc2nnc(Nc3ccc(Cl)cc3)c3ccoc23)ccn1 [telatinib]
6.6

Origin of measurements: paper PMC2584942
